System: Tyrosine-protein kinase ABL1 (Homo sapiens), P00519 [T315I]
Test: Competitive binding affinity to ABL1 T315I mutant (unknown origin) at 10 uM in presence of ATP relative to control
inhibition: recorded values

{"ENTRY SMILES": "O[C@H]1CC[C@H](Nc2nccc(-n3ccc4ccccc43)n2)CC1", "TARGET SYSTEM": "Tyrosine-protein kinase ABL1 (Homo sapiens), P00519 [T315I]", "inhibition": "< 50%"}
{"ENTRY SMILES": "O[C@H]1CC[C@H](Nc2nccc(-c3n[nH]c4ccccc34)n2)CC1", "TARGET SYSTEM": "Tyrosine-protein kinase ABL1 (Homo sapiens), P00519 [T315I]", "inhibition": "96%"}
{"ENTRY SMILES": "O[C@H]1CC[C@H](Nc2nccc(-n3ncc4ccccc43)n2)CC1", "TARGET SYSTEM": "Tyrosine-protein kinase ABL1 (Homo sapiens), P00519 [T315I]", "inhibition": "< 50%"}

// next entry
Query: Please provide the recorded inhibition for "O[C@H]1CC[C@H](Nc2nccc(-n3nnc4ccccc43)n2)CC1" , tested on Tyrosine-protein kinase ABL1 (Homo sapiens), P00519 [T315I].
Reply: < 50%

All values here come from ChEMBL document CHEMBL2424622.
